# testedTarget: 5-LO (Homo sapiens)
# Sequence (P09917 whole entry): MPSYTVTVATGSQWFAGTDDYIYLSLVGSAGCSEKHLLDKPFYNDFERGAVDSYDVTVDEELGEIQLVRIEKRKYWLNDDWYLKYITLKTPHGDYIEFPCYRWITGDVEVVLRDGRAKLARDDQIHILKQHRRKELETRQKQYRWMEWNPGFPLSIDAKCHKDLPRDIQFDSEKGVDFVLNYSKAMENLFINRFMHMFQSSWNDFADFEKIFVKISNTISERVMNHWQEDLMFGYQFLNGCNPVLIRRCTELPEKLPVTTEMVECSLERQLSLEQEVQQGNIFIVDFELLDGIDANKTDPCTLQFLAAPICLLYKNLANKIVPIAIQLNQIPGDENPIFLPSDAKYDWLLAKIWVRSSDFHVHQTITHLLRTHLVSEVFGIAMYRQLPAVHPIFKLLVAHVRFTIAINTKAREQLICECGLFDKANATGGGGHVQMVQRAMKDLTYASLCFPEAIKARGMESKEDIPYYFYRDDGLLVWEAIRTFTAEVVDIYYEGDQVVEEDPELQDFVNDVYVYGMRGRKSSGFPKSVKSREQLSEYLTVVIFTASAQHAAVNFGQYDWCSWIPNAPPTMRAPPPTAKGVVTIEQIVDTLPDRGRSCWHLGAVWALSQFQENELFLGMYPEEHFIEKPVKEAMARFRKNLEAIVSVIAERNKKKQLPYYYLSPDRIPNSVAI
# testDescription: 5-LO product formation in intact PMNL
pIC50: −log10 of the molar value.
# if value of pIC50 reaches 6, tag criterion met; if it stays below, tag criterion not met

[
  {
    "compound": "COc1ccc(/C=C(/C#N)c2cccnc2)cc1OC [RG13022]",
    "testedTarget": "5-LO (Homo sapiens)",
    "class": "criterion not met"
  },
  {
    "compound": "O=C(/C=C/c1ccc(O)c(O)c1)OCCc1ccccc1 [CAPE, caffeic acid phenethyl ester]",
    "testedTarget": "5-LO (Homo sapiens)",
    "class": "criterion met"
  },
  {
    "compound": "N#C/C(=C/c1cc(Cl)cc(Cl)c1)c1cccnc1 [RG14620]",
    "testedTarget": "5-LO (Homo sapiens)",
    "class": "criterion not met"
  },
  {
    "compound": "N#CC(C#N)=Cc1cc(O)c(O)c(O)c1 [AG82]",
    "testedTarget": "5-LO (Homo sapiens)",
    "class": "criterion not met"
  },
  {
    "compound": "N#CC(C#N)=Cc1ccc(O)c(O)c1 [AG18]",
    "testedTarget": "5-LO (Homo sapiens)",
    "class": "criterion not met"
  },
  {
    "compound": "N#C/C(=C\\c1ccc(O)c(O)c1)C(N)=O [(E)-AG99]",
    "testedTarget": "5-LO (Homo sapiens)",
    "class": "criterion not met"
  },
  {
    "compound": "N#C/C(=C\\c1ccc(O)c(O)c1)C(=O)NCCCCc1ccccc1 [AG556]",
    "testedTarget": "5-LO (Homo sapiens)",
    "class": "criterion met"
  },
  {
    "compound": "CC(C)(C)c1cc(C=C(C#N)C#N)cc(Br)c1O [AG1024]",
    "testedTarget": "5-LO (Homo sapiens)",
    "class": "criterion not met"
  },
  {
    "compound": "CCC[C@H](NC(=O)/C(C#N)=C/c1cccc(Br)n1)c1ccccc1 [Degrasyn]",
    "testedTarget": "5-LO (Homo sapiens)",
    "class": "criterion met"
  }
]
